TARGET: T1, SARS-CoV-2 S2 (40590-V08B, Sino Biological) (SARS-CoV-2, UniProt P0DTC2 686-1213)
T1 construct: domain: S2
METHOD_NOTES: ELISA on coated protein, anti-human IgG-HRP; AUC of the OD
The binders listed here are annotated with their Binding AUC.
// no unit, no text: just the number

1250E10 (antibody, V domains shown, Recombinant human IgG1) VH: EVQLVQSGAEVKKPGASVKFSCKASGFRVDGSYMHWVRQAPRGGLEWMGLINPSGSGTAYAQIFQGRVTLTRDTSTSTLYMELGSLGSEDTAMYYCARMDRSGSYDLWGQGTLVIVSS VL: DIVLTQSPGNLSLSPGERATLSCRASESIRSAYIAWYQQKPGQAPRLLMRGASVRAAGIPDRFSGSGSGTDYALTISRLEPEDFAVYYCQHFASSPPRYTFGQGTKLEIK
27.9
1246C2 (antibody, V domains shown) VH: QVQLVQSGGGLVKPGGSLRLSCAASGFTFKTHNMIWVRQAPGKVLEWVSSISGSSSYRYYGDSMKGRLTISRDNAKNSLYLEMNSLRAEDTAVYYCARDKGVGPTMVWYFDLWGRGTLVTVSS VL: EIVLTQSPATLSLSPGDRATLSCRASQSLSISLAWYQQKPGQAPRLLIYDASIRATGVPPRFSGSGSGTDFTLTISSLEPEDFAVYYCQQWSGWPPRLTFGGGTKVEIK
17.4

Read off the recorded Binding AUC for 1249A8 (antibody, V domains shown) VH: QVQLVQSGAEVKKPGASMKVSCKASGFTFTDYYMHWVRQAPRQGLEWMGLINPSGSGTAYAQNFQGRVTLARDTSTSTLYMEMGSLTSDDTAVYYCARMDSSGSYDHWGQGTLVTVSS VL: ETTLTQSPGTLSLSPGDRATLSCRASQTIRISYLAWYQQKPGQAPRLLVYGPSIRATGIPDRFSARGSGTDFTLTISRLEPEDFAVYYCQHYGSSPPRYTFGQGTKLEIK
28.2

Source: patent US20240270828A1
